Listing of recorded MIC by entry.
Tested on: Pseudomonas aeruginosa RDK 184 (DSM 939)
Test: microbe, parasite or virus in culture
Details: DSM939, read-out: MIC P. aeruginosa RDK 184 (DSM 939)
Readout Name: MIC

Smiles String: COc1ccc2nccc(CCN3CCC(NCc4cc(F)c(Br)cc4F)CC3)c2n1
Result: 260 µM
//
Smiles String: COc1ccc2nccc(CCN3CCC(NCc4ccc(Cl)c(F)c4)CC3)c2n1
Result: 149 µM
//
Smiles String: COc1ccc2nccc(CCN3CCC(NCc4ccc(I)c(F)c4)CC3)c2n1
Result: 30.7 µM
//
Smiles String: COc1ccc2nccc(CCN3CCC(NCc4ccc(I)c(F)c4F)CC3)c2n1
Result: 119 µM
//
Smiles String: COc1ccc2nccc(CCN3CCC(NCc4ccc(Cl)cn4)CC3)c2n1
Result: > 311 µM
//
Smiles String: COc1ccc2nccc(CCN3CCC(NCc4ccc(Cl)nc4)CC3)c2n1
Result: > 311 µM

====

Tested on: E. coli D22
Assay: microbe, parasite or virus in culture
Settings: Escherichia coli, D22, read-out: MIC E. coli D2
log10 MIC values by entry
Readout Name: log10 MIC (log10 of the value in µM)

Compound: COc1ccc2nccc(CCN3CCC(NCc4ccc(Br)c(F)c4F)CC3)c2n1
log10 MIC: 0.01

Compound: COc1ccc2nccc(CCN3CCC(NCc4ccc(Cl)nc4)CC3)c2n1
log10 MIC: 0.99

Compound: COc1ccc2nccc(CCN3CCC(NCc4ccc(Cl)cn4)CC3)c2n1
log10 MIC: 1.59

Compound: COc1ccc2nccc(CCN3CCC(NCc4ccc(I)c(F)c4)CC3)c2n1
log10 MIC: -0.92

Compound: COc1ccc2nccc(CCN3CCC(NCc4ccc(Cl)c(F)c4)CC3)c2n1
log10 MIC: -0.23

Compound: COc1ccc2nccc(CCN3CCC(NCc4cc(F)c(Cl)c(F)c4)CC3)c2n1
log10 MIC: -1.16

Compound: COc1ccc2nccc(CCN3CCC(NCc4ccc(Br)c(F)c4)CC3)c2n1
log10 MIC: -0.88

Compound: COc1ccc2nccc(CCN3CCC(NCc4ccc(I)c(F)c4F)CC3)c2n1
log10 MIC: -0.64

Compound: COc1ccc2nccc(CCN3CCC(NCc4cc(F)c(Br)cc4F)CC3)c2n1
log10 MIC: -0.29

Compound: O=c1ccc2ncc(=O)n3c2n1C[C@H]3CN1CCC(NCc2cc3c(cn2)OCCC3)CC1 [Gepotidacin, gepotidacin, reference compound]
log10 MIC: -0.55

====

Catalogue of compounds with associated MIC
Tested on: E. coli N43 (CGSC no. 5583)
Assay: microbe, parasite or virus in culture
Details: Escherichia coli, read-out: MIC E. coli N43 (CGSC no. 5583)

Compound: COc1ccc2nccc(CCN3CCC(NCc4ccc(Cl)cn4)CC3)c2n1 [Compound 13]
MIC / µg/mL: 8
--
Compound: COc1ccc2nccc(CCN3CCC(NCc4ccc(Br)c(F)c4)CC3)c2n1 [Compound 5]
MIC / µg/mL: 0.031
--
Compound: COc1ccc2nccc(CCN3CCC(NCc4cc(F)c(Cl)c(F)c4)CC3)c2n1 [Compound 7]
MIC / µg/mL: 0.062
--
Compound: COc1ccc2nccc(CCN3CCC(NCc4ccc(I)c(F)c4F)CC3)c2n1 [Compound 11]
MIC / µg/mL: 0.031
--
Compound: COc1ccc2nccc(CCN3CCC(NCc4cc(F)c(Br)cc4F)CC3)c2n1 [Compound 9]
MIC / µg/mL: 0.062

====

Target: S. aureus DNA gyrase (Staphylococcus aureus, UniProt P20831)
Sequence (P20831 whole entry, looked up): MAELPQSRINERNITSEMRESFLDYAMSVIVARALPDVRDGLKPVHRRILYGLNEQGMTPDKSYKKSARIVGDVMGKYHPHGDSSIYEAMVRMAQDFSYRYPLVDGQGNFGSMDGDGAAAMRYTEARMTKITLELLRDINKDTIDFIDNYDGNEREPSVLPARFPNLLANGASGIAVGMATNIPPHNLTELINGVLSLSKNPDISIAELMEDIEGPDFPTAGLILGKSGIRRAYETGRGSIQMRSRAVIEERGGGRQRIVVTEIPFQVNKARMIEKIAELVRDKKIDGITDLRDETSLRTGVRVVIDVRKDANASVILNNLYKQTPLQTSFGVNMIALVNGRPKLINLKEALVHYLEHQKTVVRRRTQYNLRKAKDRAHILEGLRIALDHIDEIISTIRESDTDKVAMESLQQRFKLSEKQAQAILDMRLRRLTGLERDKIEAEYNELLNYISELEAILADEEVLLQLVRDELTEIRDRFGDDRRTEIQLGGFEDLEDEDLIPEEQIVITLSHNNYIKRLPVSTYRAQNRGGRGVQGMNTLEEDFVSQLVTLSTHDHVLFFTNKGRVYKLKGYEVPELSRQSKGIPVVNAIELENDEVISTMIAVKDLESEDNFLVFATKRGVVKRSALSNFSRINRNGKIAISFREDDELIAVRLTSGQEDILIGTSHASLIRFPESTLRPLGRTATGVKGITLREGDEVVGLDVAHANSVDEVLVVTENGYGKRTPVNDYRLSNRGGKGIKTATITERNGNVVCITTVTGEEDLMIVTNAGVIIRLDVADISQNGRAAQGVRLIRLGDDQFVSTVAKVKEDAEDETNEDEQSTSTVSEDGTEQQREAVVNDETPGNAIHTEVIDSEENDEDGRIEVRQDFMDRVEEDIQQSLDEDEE

Smiles String: COc1ccc2nccc(CCN3CCC(NCc4cc(F)c(Br)cc4F)CC3)c2n1
Measurement Target: S. aureus DNA gyrase (Staphylococcus aureus, UniProt P20831)
IC50: 9 nM
--
Smiles String: COc1ccc2nccc(CCN3CCC(NCc4ccc(Br)c(F)c4)CC3)c2n1
Measurement Target: S. aureus DNA gyrase (Staphylococcus aureus, UniProt P20831)
IC50: 7 nM
--
Smiles String: COc1ccc2nccc(CCN3CCC(NCc4ccc(I)c(F)c4)CC3)c2n1
Measurement Target: S. aureus DNA gyrase (Staphylococcus aureus, UniProt P20831)
IC50: 4 nM
--
Smiles String: COc1ccc2nccc(CCN3CCC(NCc4ccc(Cl)c(F)c4)CC3)c2n1
Measurement Target: S. aureus DNA gyrase (Staphylococcus aureus, UniProt P20831)
IC50: 6 nM
--
Smiles String: COc1ccc2nccc(CCN3CCC(NCc4ccc(Br)c(F)c4F)CC3)c2n1
Measurement Target: S. aureus DNA gyrase (Staphylococcus aureus, UniProt P20831)
IC50: 9 nM
--
Smiles String: COc1ccc2nccc(CCN3CCC(NCc4ccc(I)c(F)c4F)CC3)c2n1
Measurement Target: S. aureus DNA gyrase (Staphylococcus aureus, UniProt P20831)
IC50: 9 nM
--
Smiles String: COc1ccc2nccc(CCN3CCC(NCc4ccc(Cl)cn4)CC3)c2n1
Measurement Target: S. aureus DNA gyrase (Staphylococcus aureus, UniProt P20831)
IC50: 123 nM
--
Smiles String: COc1ccc2nccc(CCN3CCC(NCc4ccc(Cl)nc4)CC3)c2n1
Measurement Target: S. aureus DNA gyrase (Staphylococcus aureus, UniProt P20831)
IC50: 283 nM
--
Smiles String: COc1ccc2nccc(CCN3CCC(NCc4cc(F)c(Cl)c(F)c4)CC3)c2n1
Measurement Target: S. aureus DNA gyrase (Staphylococcus aureus, UniProt P20831)
IC50: 14 nM

====

Tested on: Salmonella alachua RDK 030c (QA-1482/04)
Experiment: microbe, parasite or virus in culture
Conditions: read-out: MIC Salmonella alachua RDK 030c (QA-1482/04)
Experimental: […] The minimum inhibitory concentrations (MICs) were determined using the broth micro-dilution method in 96-well plate format according to the Clinical and Laboratory Standards Institute […]
Readout Name: MIC

Molecule: COc1ccc2nccc(CCN3CCC(NCc4ccc(Cl)cn4)CC3)c2n1
Result: > 128 mg/L
//
Molecule: O=c1ccc2ncc(=O)n3c2n1C[C@H]3CN1CCC(NCc2cc3c(cn2)OCCC3)CC1 [Gepotidacin, gepotidacin, reference compound]
Result: 4 mg/L
//
Molecule: COc1ccc2nccc(CCN3CCC(NCc4ccc(Cl)c(F)c4)CC3)c2n1
Result: 8 mg/L
//
Molecule: COc1ccc2nccc(CCN3CCC(NCc4cc(F)c(Cl)c(F)c4)CC3)c2n1
Result: 2 mg/L
//
Molecule: COc1ccc2nccc(CCN3CCC(NCc4ccc(I)c(F)c4)CC3)c2n1
Result: 2 mg/L
//
Molecule: COc1ccc2nccc(CCN3CCC(NCc4ccc(Cl)nc4)CC3)c2n1
Result: > 128 mg/L
//
Molecule: COc1ccc2nccc(CCN3CCC(NCc4ccc(Br)c(F)c4F)CC3)c2n1
Result: 16 mg/L
//
Molecule: COc1ccc2nccc(CCN3CCC(NCc4cc(F)c(Br)cc4F)CC3)c2n1
Result: 16 mg/L
//
Molecule: COc1ccc2nccc(CCN3CCC(NCc4ccc(I)c(F)c4F)CC3)c2n1
Result: 8 mg/L
//
Molecule: COc1ccc2nccc(CCN3CCC(NCc4ccc(Br)c(F)c4)CC3)c2n1
Result: 4 mg/L

====

Test system: Pseudomonas aeruginosa RDK 184 (DSM 939)
Experiment: microbe, parasite or virus in culture
Settings: DSM939, read-out: MIC P. aeruginosa RDK 184 (DSM 939)
MIC for assorted compounds
Readout Name: MIC (µM)

Compound: O=c1ccc2ncc(=O)n3c2n1C[C@H]3CN1CCC(NCc2cc3c(cn2)OCCC3)CC1 [Gepotidacin, gepotidacin, reference compound]
Readout Name: MIC
Value Comparator: =
Numeric Readout: 17.8

Compound: COc1ccc2nccc(CCN3CCC(NCc4ccc(Br)c(F)c4F)CC3)c2n1
Readout Name: MIC
Value Comparator: >
Numeric Readout: 260

Compound: COc1ccc2nccc(CCN3CCC(NCc4ccc(Br)c(F)c4)CC3)c2n1
Readout Name: MIC
Value Comparator: =
Numeric Readout: 67.6

Compound: COc1ccc2nccc(CCN3CCC(NCc4cc(F)c(Cl)c(F)c4)CC3)c2n1
Readout Name: MIC
Value Comparator: =
Numeric Readout: 35.8

====

System: E. coli N43 (CGSC no. 5583)
Assay: microbe, parasite or virus in culture
Details: Escherichia coli, read-out: MIC E. coli N43 (CGSC no. 5583)

Compound: COc1ccc2nccc(CCN3CCC(NCc4ccc(Cl)c(F)c4)CC3)c2n1
Measurement Target: E. coli N43 (CGSC no. 5583)
MIC [µg/mL]: 0.062
--
Compound: COc1ccc2nccc(CCN3CCC(NCc4ccc(I)c(F)c4)CC3)c2n1
Measurement Target: E. coli N43 (CGSC no. 5583)
MIC [µg/mL]: 0.016
--
Compound: COc1ccc2nccc(CCN3CCC(NCc4ccc(Br)c(F)c4F)CC3)c2n1
Measurement Target: E. coli N43 (CGSC no. 5583)
MIC [µg/mL]: 0.125
--
Compound: O=c1ccc2ncc(=O)n3c2n1C[C@H]3CN1CCC(NCc2cc3c(cn2)OCCC3)CC1 [Gepotidacin, gepotidacin, reference compound]
Measurement Target: E. coli N43 (CGSC no. 5583)
MIC [µg/mL]: 0.016
--
Compound: COc1ccc2nccc(CCN3CCC(NCc4ccc(Cl)nc4)CC3)c2n1
Measurement Target: E. coli N43 (CGSC no. 5583)
MIC [µg/mL]: 8
